Origin of values: the supplement of paper PMC10981050

# System: OCI-AML2;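 further: after 48 h exposure read by CellTiter-Glo luminescence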
# protocol.text: cell viability relative to vehicle control; higher = less cytotoxic
# test.context: 10 µM; SRSF2 genotype: wt/wt
Counter-ions that a name gives are not always drawn.
Cut-off 90% on cell viability: below means label 1, at or above means label 0.

Ask: Here's an entry: CCOC(=O)c1ccc(N)cc1 [Benzocaine] . Is its cell viability below 90%?
Reply: label 0

Ask: Would you kindly verify if cell viability of [Na+].[Na+].[Na+].[Na+].[Na+].[Na+].[O]=[W](=[O])([O-])[O-].[O]=[W](=[O])([O-])[O-].[O]=[W](=[O])([O-])[O-].[O]=[W](=[O])=[O].[O]=[W](=[O])=[O].[O]=[W](=[O])=[O].[O]=[W](=[O])=[O].[O]=[W](=[O])=[O].[O]=[W](=[O])=[O].[O]=[W](=[O])=[O].[O]=[W](=[O])=[O].[O]=[W](=[O])=[O] [SodiuM Metatungstate] is strictly less than 90%?
Reply: label 0

Ask: # check: cell viability < 90% for COC(=O)Nc1nc2cc(C(=O)c3ccc(F)cc3)ccc2[nH]1 [Flubendazole (Flutelmium)]
Reply: label 1

Ask: Does the reported cell viability of the following compound sit strictly below 90%? N=C1NC(=O)/C(=C/c2ccc(O)cc2)S1 [Mirin]
Reply: label 1

Ask: # TODO verify cell viability < 90% strictly for this compound: COc1cc2c[n+](C)c3c4cc5c(cc4ccc3c2cc1OC)OCO5 [Nitidine Chloride]
Reply: label 1

Ask: Problem: For the compound O=C(O)C=CCCCCCCCO [Royal jelly acid] , is cell viability under 90%?
Reply: label 0

Ask: Lab note: confirm whether the reported cell viability for this compound is below 90%, equality not counting. compound: Cn1cc(C2=C(c3cn(CCCSC(=N)N)c4ccccc34)C(=O)NC2=O)c2ccccc21 [Ro 31-8220 Mesylate]
Reply: label 1

Ask: Please indicate whether the reported cell viability of Cc1ccc(C(=O)Nc2ccc(CN3CCN(C)CC3)c(C(F)(F)F)c2)cc1C#Cc1cnc2[nH]ncc2c1 [GZD824 Dimesylate] is strictly below 90%.
Reply: label 1

Ask: API: query returns whether the compound falls strictly under 90% in cell viability. Query: O=C(O)P(=O)(O)O [Foscarnet Sodium]
Reply: label 0

Ask: Lab note: cell viability threshold 90%. Does this compound come in strictly under it? CC(C)(C)c1cc(O)c(C(C)(C)C)cc1O
Reply: label 0

Ask: Strictly below 90% in cell viability? Cc1ccc(Nc2c(F)cccc2Cl)c(CC(=O)O)c1 [Lumiracoxib (COX-189)]
Reply: label 0

Ask: Dear reviewer, please state whether CC(C)CCN1c2nc(Nc3cc(F)c(O)c(F)c3)ncc2N(C)C(=O)C1C (stereo not given) has cell viability strictly beneath 90%.
Reply: label 1

Ask: Identify whether the compound C[C@@H]1O[C@@H](O[C@H]2[C@H](Oc3cc(O)c4c(c3)O[C@H](c3ccc(O)cc3)CC4=O)O[C@H](CO)[C@@H](O)[C@@H]2O)[C@H](O)[C@H](O)[C@H]1O [Naringin (Naringoside)] records cell viability below 90%.
Reply: label 0

Ask: Record O=c1cc(-c2ccc(O)cc2)oc2cc(O)c(O)c(O)c12 [Scutellarein] : is its cell viability strictly below 90%?
Reply: label 0
